# reported Fold change to WT CD80; entries follow
Molecular target: T1, CD28 on Jurkat/IL2 reporter cells (human, UniProt P10747 19-220)
T1 construct: whole, on cells; Endogenous CD28 of Jurkat cells; also called Jurkats (CD28)
Assay: flow cytometry, Jurkat cells (CD28); MFI relative to WT CD80
# value in fold; strip the unit string

Request: Any idea what its Fold change to WT CD80 is? The binder is variant CD80 IgV-Fc M43I/M47L/A71G (Fc fusion, not shown: a dimerising Fc or GST) VIHVTKEVKEVATLSCGHNVSVEELAQTRIYWQKEKKMVLTMISGDLNIWPEYKNRTIFDITNNLSIVILGLRPSDEGTYECVVLKYEKDAFKREHLAEVTLSVKAD
Result: 15.2

Request: Please answer likewise for variant CD80 IgV-Fc E35D/M47L/A71G/L85M (Fc fusion, not shown: a dimerising Fc or GST) VIHVTKEVKEVATLSCGHNVSVEELAQTRIYWQKDKKMVLTMMSGDLNIWPEYKNRTIFDITNNLSIVILGLRPSDEGTYECVVMKYEKDAFKREHLAEVTLSVKAD
Result: 3

Request: Please answer likewise for variant CD80 IgV-Fc M47I/A71G (Fc fusion, not shown: a dimerising Fc or GST) VIHVTKEVKEVATLSCGHNVSVEELAQTRIYWQKEKKMVLTMMSGDINIWPEYKNRTIFDITNNLSIVILGLRPSDEGTYECVVLKYEKDAFKREHLAEVTLSVKAD
Result: 12.5
